Answer each item with its documented Kd.
- assayed-system: galectin-3 (Homo sapiens)
- Construct: made in house
- Sequence (P17931 whole entry): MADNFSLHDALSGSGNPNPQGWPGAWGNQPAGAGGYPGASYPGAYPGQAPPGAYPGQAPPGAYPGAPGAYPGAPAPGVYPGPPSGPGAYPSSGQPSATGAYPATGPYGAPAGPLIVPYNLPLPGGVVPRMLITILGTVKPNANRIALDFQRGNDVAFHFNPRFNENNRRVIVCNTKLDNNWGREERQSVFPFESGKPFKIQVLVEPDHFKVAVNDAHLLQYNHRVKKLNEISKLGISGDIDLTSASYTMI
- method: competitive fluorescence polarization assay, galectin-3
- Format: binding
- condition-label: galectin-3 0.2 µM, fluorescent probe 20 nM; read-out: Dissociation constant KD ± SEM, galectin-3
Give the value in µM but do not write µM after it.

Query string: Answer briefly: Kd recorded on galectin-3 (Homo sapiens) for `OC[C@H]1O[C@H](Cn2cc(-c3ccc(F)cc3F)nn2)[C@H](O)[C@@H](O)[C@H]1O`
Result string: 490

Query string: Answer briefly: Kd recorded on galectin-3 (Homo sapiens) for `OC[C@H]1O[C@H](Cn2cc(-c3ccc(F)cc3)nn2)[C@H](O)[C@@H](O)[C@H]1O`
Result string: 710

Query string: Answer briefly: Kd recorded on galectin-3 (Homo sapiens) for `OC[C@H]1O[C@H](Cn2cc(-c3ccc(F)c(F)c3)nn2)[C@H](O)[C@@H](O)[C@H]1O`
Result string: 610

Query string: Answer briefly: Kd recorded on galectin-3 (Homo sapiens) for `OC[C@H]1O[C@H](Cn2cc(-c3ccccc3F)nn2)[C@H](O)[C@@H](O)[C@H]1O`
Result string: 500
